Each recorded value in this set is attributed to patent US8778966B2.

Target: Human PARP-1 enzyme (Homo sapiens, UniProt P09874)
Construct: purchased Trevigen
Sequence (P09874 whole entry): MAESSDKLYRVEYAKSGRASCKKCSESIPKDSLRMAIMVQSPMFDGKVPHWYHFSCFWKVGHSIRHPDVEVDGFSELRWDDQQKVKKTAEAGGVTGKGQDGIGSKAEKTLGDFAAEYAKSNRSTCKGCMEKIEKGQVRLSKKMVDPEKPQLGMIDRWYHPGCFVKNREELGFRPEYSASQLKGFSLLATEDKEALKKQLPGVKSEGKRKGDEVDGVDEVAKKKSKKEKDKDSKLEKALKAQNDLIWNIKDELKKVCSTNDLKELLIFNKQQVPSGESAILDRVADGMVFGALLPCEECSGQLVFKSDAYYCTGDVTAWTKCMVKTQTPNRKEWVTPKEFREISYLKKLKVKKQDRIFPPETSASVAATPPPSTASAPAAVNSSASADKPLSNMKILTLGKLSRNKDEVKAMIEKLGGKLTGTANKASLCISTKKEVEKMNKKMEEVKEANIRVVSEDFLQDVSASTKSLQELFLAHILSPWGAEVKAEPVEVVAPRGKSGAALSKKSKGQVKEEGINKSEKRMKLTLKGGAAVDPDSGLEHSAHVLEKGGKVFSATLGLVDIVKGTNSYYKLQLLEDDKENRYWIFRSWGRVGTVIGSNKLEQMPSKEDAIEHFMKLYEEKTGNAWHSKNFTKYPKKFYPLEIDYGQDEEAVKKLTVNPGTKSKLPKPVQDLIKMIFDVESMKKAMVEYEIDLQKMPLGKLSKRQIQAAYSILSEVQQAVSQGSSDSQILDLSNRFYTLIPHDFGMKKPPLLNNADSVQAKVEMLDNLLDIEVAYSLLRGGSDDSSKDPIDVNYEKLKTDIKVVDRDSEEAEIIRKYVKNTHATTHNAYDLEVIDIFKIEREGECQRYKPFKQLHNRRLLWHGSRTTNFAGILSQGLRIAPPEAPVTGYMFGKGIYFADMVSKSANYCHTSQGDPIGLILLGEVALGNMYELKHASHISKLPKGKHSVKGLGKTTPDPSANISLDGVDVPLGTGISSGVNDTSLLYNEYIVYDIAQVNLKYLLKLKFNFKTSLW
Assay: In vitro Scintillation Proximity Assay (SPA) for PARP-1 inhibitory activity
Format: biochemical
Conditions: read-out: in vitro SPA assay PARP-1 pIC50 (converted)
ENDPOINT LABEL: IC50 (nM)
Please state the figure in nM; there is no need to write the unit.

Worked examples follow.
> print(dat)
                                   molecule  endpoint.label  unit.info   val
1  CCc1cc2ccc(C(C)(C#N)CCOc3ccc(Br)cc3)cc2[nH]c1=O (centres unmarked)            IC50         nM   794
2  CCc1cc2ccc(C(C)(C#N)Cc3ccccc3C(F)(F)F)cc2[nH]c1=O (centres unmarked)            IC50         nM  1260
3  CCc1cc2ccc(C(C)(C#N)Cc3cccc(Cl)c3)cc2[nH]c1=O (centres unmarked)            IC50         nM   631
4  CCc1cc2ccc(C(C)(C#N)Cc3cccc(NC)n3)cc2[nH]c1=O (centres unmarked)            IC50         nM  39.8
5  C#Cc1cccc(C[C@@](C)(C#N)c2ccc3cc(CC)c(=O)[nH]c3c2)c1            IC50         nM  79.4
6  CCc1cc2ccc([C@](C)(C#N)[C@H](C)c3ccccc3)cc2[nH]c1=O            IC50         nM   251

Moving on to another molecule below.
Fill in the blank: the reported IC50 of CCC[C@](C#N)(Cc1ccccc1)c1ccc2cc(CC)c(=O)[nH]c2c1 (single isomer, unassigned) is ____.
398

---

Target: Human PARP-1 enzyme (Homo sapiens, UniProt P09874)
Construct: purchased Trevigen
Experiment: In vitro Scintillation Proximity Assay (SPA) for PARP-1 inhibitory activity
Format: biochemical
Conditions: read-out: in vitro SPA assay PARP-1 pIC50 (converted)
IC50 for assorted molecules
Please state the figure in nM; there is no need to write the unit.

Worked examples follow.
> print(dat)
                                   molecule  endpoint.label  val
1  CCc1c(Cl)c2ccc(C(C)(C#N)Cc3cccc(C#N)c3)cc2[nH]c1=O (stereo not shown) [Compound 293]            IC50  398
2  CCc1cc2ccc(C(C)(C#N)CCOc3ccccc3C)cc2[nH]c1=O (stereo not shown) [Compound 148]            IC50  316

Fill in the blank: the reported IC50 of CCc1cc2ccc(C(C)(C#N)Cc3cccc(N4CCNCC4)c3)cc2[nH]c1=O (stereo not shown) [Compound 64] is ____.
794

Fill in the blank: the reported IC50 of CCc1cc2ccc(C(C)(C#N)Cc3ccc(OC)nc3Cl)cc2[nH]c1=O (stereo not shown) [Compound 224] is ____.
12.6

---

Target: TANK-2 enzyme (Homo sapiens, UniProt Q9H2K2)
Construct: made in house
Sequence (Q9H2K2 1-1166): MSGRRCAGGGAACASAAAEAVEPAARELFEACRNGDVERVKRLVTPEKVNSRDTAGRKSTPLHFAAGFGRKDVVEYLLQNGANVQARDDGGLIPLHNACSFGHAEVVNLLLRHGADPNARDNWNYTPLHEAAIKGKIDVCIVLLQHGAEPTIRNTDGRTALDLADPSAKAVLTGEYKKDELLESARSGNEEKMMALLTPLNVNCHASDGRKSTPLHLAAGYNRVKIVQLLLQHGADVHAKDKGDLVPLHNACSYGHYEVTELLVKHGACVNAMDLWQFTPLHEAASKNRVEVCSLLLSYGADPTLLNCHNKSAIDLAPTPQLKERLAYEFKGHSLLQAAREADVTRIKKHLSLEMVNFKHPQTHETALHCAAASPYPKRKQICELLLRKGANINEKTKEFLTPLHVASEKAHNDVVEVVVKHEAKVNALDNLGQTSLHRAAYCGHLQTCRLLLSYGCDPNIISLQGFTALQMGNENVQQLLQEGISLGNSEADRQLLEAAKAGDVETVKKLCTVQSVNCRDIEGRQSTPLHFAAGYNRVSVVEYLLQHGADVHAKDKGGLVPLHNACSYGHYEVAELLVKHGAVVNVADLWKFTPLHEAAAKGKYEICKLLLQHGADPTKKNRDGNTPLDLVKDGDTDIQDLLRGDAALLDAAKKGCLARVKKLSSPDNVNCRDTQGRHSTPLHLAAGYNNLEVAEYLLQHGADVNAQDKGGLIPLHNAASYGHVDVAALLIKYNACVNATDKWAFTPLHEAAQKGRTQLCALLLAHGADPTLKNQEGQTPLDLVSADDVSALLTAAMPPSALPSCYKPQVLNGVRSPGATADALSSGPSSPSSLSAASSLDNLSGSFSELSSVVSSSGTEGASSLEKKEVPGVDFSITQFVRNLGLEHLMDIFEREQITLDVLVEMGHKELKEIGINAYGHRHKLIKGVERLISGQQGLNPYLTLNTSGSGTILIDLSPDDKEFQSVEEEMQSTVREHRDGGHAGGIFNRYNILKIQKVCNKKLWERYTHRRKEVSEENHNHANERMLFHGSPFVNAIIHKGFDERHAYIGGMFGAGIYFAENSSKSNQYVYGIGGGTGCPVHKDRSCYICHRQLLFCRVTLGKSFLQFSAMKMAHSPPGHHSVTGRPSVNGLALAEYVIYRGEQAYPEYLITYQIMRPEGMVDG
Assay: In vitro Scintillation Proximity Assay (SPA) for TANK-2 inhibitory activity
Format: biochemical
Settings: read-out: in vitro SPA assay TANK-2 pIC50 (converted)
IC50 for assorted compounds
Write the quantity with the unit trailing the number.

> print(dat)
                                   compound  endpoint.label      val
1  CCc1cc2ccc(C(C)(C#N)CCOc3ccccc3)cc2[nH]c1=O (stereo not shown) [Compound 145]            IC50  50.1 nM

Fill in the blank: the reported IC50 of CCc1cc2ccc(C(C#N)(CC)Cc3cccc(C#N)n3)cc2[nH]c1=O (stereo not shown) [Compound 342] is ____.
39.8 nM

Fill in the blank: the reported IC50 of Cc1cc2ccc([C@@](C)(C#N)[C@H]3CCCc4ccccc43)cc2[nH]c1=O [Compound 384] is ____.
1000 nM

Fill in the blank: the reported IC50 of CCc1cc2ccc([C@](C)(C#N)Cc3cc(OC)nc(C)n3)cc2[nH]c1=O (single isomer, unassigned) [Compound 362] is ____.
126 nM

---

IC50 for assorted compounds
Target: TANK-2 enzyme (Homo sapiens)
Construct: made in house
Experiment: In vitro Scintillation Proximity Assay (SPA) for TANK-2 inhibitory activity
Format: biochemical
Settings: read-out: in vitro SPA assay TANK-2 pIC50 (converted)
Please state the figure in µM; there is no need to write the unit.

Worked examples follow.
> print(dat)
                                   compound    val
1  CCc1cc2ccc(C(C)(C#N)Cc3cc(Br)cc(Br)c3)cc2[nH]c1=O (centres unmarked) [Compound 133]    0.2
2  Cc1cc2ccc(C(C)(C#N)Cc3cccc4cccnc34)cc2[nH]c1=O (centres unmarked) [Compound 74]  0.126
3  CC(C)c1cc2ccc(C(C)(C#N)Cc3ccccc3)cc2[nH]c1=O (centres unmarked) [Compound 38]  0.501
4  CCc1cc2ccc(C(C)(C#N)Cc3cccc(CNS(C)(=O)=O)c3)cc2[nH]c1=O (centres unmarked) [Compound 170]  0.794
5  C=C(C)c1cccc(CC(C)(C#N)c2ccc3cc(CC)c(=O)[nH]c3c2)c1 (centres unmarked) [Compound 254]  0.251

Fill in the blank: the reported IC50 of CCc1cc2ccc(C(C)(C#N)CCOc3cccc4c3OCCO4)cc2[nH]c1=O (centres unmarked) [Compound 163] is ____.
0.2

Fill in the blank: the reported IC50 of CCc1cc2ccc(C(C)(C#N)Cc3cccc(OC)c3F)cc2[nH]c1=O (centres unmarked) [Compound 286] is ____.
0.2

Fill in the blank: the reported IC50 of CCc1cc2ccc(C(C)(C#N)Cc3cc(F)cc(C(F)(F)F)c3)cc2[nH]c1=O (centres unmarked) [Compound 127] is ____.
0.398

Fill in the blank: the reported IC50 of CCc1cc2ccc(C(C)(C#N)Cc3ccc(OC)nc3Cl)cc2[nH]c1=O (centres unmarked) [Compound 224] is ____.
0.2

Fill in the blank: the reported IC50 of CCc1cc2ccc(C(C)(C#N)CCOc3ccc(SC)cc3)cc2[nH]c1=O (centres unmarked) [Compound 155] is ____.
0.126

Fill in the blank: the reported IC50 of CCc1cc2ccc(C(C)(C#N)CCOc3ccccc3Br)cc2[nH]c1=O (centres unmarked) [Compound 153] is ____.
0.0794

Fill in the blank: the reported IC50 of CCc1cc2ccc([C@@](C)(C#N)Cc3cccc(N(C)C)c3)cc2[nH]c1=O (single isomer, unassigned) [Compound 258] is ____.
0.501

Fill in the blank: the reported IC50 of CCc1cc2ccc(C(C)(C#N)Cc3cccc(N4CCCCC4)c3)cc2[nH]c1=O (centres unmarked) [Compound 65] is ____.
0.0398

Fill in the blank: the reported IC50 of Cc1nc(-c2ccccc2)sc1CC(C)(C#N)c1ccc2cc(C)c(=O)[nH]c2c1 (centres unmarked) [Compound 235] is ____.
1

Fill in the blank: the reported IC50 of C#Cc1cccc(CC(C)(C#N)c2ccc3cc(CC)c(=O)[nH]c3c2)n1 (centres unmarked) [Compound 211] is ____.
0.398

Fill in the blank: the reported IC50 of CCc1cc2ccc(C(C)(C#N)Cc3cccc(/C=C/S(C)(=O)=O)c3)cc2[nH]c1=O (centres unmarked) [Compound 292] is ____.
0.126

Fill in the blank: the reported IC50 of CCc1cc2ccc(C(C)(C#N)Cc3cccc(O)c3)cc2[nH]c1=O (centres unmarked) [Compound 22] is ____.
0.0501
